Target: full-length human ATR protein (Homo sapiens (Human), UniProt Q13535)
Sequence (Q13535 other isoform, or with tags, fused parts or gaps): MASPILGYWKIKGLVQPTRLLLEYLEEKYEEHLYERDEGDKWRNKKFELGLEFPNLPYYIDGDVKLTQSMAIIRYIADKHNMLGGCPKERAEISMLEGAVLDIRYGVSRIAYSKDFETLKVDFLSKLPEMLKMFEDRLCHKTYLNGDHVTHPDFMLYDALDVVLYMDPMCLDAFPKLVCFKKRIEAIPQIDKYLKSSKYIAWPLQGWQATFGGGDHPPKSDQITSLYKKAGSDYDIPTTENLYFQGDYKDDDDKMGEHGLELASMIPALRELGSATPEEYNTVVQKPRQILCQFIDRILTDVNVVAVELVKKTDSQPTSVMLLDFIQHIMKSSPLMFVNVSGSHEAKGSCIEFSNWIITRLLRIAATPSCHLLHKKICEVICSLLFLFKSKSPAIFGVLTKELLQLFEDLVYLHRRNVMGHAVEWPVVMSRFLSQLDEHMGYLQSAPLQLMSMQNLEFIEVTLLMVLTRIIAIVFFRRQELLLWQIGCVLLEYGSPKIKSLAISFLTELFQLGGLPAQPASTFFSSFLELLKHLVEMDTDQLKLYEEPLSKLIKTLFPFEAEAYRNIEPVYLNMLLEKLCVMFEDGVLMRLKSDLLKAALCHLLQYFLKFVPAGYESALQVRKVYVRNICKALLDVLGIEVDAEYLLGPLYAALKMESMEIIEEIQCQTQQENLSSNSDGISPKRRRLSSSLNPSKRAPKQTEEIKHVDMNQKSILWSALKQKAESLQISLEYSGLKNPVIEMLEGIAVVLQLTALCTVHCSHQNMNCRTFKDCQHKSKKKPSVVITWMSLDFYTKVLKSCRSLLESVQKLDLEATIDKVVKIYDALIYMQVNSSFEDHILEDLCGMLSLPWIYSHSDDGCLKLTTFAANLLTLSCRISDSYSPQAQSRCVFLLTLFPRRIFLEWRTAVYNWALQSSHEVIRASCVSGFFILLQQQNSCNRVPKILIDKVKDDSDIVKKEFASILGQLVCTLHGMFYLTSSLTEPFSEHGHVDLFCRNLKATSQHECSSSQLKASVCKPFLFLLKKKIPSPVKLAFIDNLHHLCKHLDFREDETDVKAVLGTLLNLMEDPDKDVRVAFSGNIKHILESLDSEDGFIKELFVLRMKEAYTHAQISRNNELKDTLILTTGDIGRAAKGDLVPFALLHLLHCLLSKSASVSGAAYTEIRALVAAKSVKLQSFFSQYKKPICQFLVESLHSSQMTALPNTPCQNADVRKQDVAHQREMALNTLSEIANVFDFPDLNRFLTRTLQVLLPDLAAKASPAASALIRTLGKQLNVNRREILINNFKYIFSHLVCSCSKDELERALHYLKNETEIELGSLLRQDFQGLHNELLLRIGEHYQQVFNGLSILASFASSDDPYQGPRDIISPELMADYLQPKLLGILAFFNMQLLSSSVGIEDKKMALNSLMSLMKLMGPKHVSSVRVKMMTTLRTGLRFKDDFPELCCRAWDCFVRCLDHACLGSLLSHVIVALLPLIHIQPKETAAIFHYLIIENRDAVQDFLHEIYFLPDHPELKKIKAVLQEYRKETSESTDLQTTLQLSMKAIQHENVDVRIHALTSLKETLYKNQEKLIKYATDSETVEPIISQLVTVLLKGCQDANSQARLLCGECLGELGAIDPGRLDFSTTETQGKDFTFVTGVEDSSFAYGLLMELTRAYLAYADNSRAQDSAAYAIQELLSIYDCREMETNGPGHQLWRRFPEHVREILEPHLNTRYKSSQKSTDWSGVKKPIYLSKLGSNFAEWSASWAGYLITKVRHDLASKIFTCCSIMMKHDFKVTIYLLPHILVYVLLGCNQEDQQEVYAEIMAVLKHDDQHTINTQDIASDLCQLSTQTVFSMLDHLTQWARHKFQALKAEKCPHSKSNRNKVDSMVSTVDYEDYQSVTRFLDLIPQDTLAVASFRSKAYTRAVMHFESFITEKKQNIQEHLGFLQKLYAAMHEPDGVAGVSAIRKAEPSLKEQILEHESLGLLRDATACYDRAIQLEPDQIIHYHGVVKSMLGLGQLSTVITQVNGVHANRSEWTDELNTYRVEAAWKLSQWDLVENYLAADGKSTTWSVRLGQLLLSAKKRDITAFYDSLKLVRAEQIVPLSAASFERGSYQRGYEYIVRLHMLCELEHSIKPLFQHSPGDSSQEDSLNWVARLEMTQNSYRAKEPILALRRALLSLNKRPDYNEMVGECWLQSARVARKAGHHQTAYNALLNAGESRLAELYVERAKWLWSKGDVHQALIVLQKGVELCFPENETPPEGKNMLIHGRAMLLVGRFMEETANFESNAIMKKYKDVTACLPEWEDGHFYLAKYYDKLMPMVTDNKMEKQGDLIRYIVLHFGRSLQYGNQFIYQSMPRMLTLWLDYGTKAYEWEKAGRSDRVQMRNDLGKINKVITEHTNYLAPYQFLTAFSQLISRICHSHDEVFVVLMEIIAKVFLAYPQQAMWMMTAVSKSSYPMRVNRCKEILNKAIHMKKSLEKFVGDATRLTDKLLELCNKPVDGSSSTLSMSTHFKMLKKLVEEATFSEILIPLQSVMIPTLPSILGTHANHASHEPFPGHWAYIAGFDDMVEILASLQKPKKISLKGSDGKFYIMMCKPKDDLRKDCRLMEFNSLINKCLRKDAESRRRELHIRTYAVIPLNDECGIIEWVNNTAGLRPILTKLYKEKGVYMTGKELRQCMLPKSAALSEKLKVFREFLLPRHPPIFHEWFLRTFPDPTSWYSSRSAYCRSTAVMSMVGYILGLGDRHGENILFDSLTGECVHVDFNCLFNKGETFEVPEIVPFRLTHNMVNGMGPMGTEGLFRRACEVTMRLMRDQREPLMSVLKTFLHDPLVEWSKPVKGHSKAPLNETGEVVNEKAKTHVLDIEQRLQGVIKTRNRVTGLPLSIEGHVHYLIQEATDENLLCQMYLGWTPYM
Sequence (Q8WXE1 other isoform, or with tags, fused parts or gaps partner): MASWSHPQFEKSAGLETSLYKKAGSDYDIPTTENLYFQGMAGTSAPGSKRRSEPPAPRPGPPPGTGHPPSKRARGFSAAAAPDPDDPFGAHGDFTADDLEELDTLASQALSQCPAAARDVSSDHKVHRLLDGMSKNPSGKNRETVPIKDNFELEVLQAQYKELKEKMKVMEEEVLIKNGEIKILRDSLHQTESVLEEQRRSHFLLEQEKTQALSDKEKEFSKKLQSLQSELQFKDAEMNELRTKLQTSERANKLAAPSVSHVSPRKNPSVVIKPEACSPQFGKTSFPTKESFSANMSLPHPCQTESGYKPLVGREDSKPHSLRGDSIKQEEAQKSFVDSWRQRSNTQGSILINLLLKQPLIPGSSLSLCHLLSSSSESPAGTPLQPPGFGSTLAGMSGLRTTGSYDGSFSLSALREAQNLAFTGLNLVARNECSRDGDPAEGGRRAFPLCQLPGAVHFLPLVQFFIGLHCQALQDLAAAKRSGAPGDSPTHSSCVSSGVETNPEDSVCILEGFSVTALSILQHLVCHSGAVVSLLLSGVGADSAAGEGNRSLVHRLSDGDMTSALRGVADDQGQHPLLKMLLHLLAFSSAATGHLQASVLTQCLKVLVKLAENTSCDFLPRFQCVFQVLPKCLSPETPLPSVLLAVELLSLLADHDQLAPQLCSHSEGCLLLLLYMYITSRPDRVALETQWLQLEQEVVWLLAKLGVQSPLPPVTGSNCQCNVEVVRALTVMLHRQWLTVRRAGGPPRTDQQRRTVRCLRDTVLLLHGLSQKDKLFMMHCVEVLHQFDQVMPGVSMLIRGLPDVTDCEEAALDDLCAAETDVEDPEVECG
Assay: Binding assay ATR (TR-FRET tracer displacement)
Conditions: tracer A, TR-FRET; read-out: ATR binding (tracer A) IC50
pIC50: −log10 of the molar value.
Threshold rule: pIC50 greater than or equal to 7 is rule met; below that, rule not met.

Given the entry Cc1cc(-c2cc(N3CCOCC3)nc3c(-c4ccn[nH]4)nccc23)cnc1S(C)(=O)=O , answer whether its pIC50 meets or surpasses 7.
rule not met

Given the entry Cc1cc(-c2cc(N3CCOC[C@H]3C)nc3c(-c4ccn[nH]4)nccc23)c(C)n1C , answer whether its pIC50 meets or surpasses 7.
rule met

Given the entry c1ccc2c(c1)CN(c1cc(N3CCOCC3)nc3c(-c4ccn[nH]4)nccc13)C2 , answer whether its pIC50 meets or surpasses 7.
rule not met

Given the entry C[C@@H]1COCCN1c1cc(OCCCNC(=O)OC(C)(C)C)c2ccnc(-c3ccn[nH]3)c2n1 , answer whether its pIC50 meets or surpasses 7.
rule not met

Given the entry C[C@@H]1COCCN1c1cc(N(C)C2CC2)c2ccnc(-c3ccn[nH]3)c2n1 , answer whether its pIC50 meets or surpasses 7.
rule met

Given the entry OCc1ccc(-c2cc(N3CCOCC3)nc3c(-c4ccn[nH]4)nccc23)s1 , answer whether its pIC50 meets or surpasses 7.
rule met

---

Biological target: full-length human ATR protein (Homo sapiens (Human))
Test: Binding assay ATR (TR-FRET tracer displacement)
Conditions: tracer A, TR-FRET; read-out: ATR binding (tracer A) IC50
I'd appreciate it if you could supply IC50 values for the items below.
Only the number, expressed in nM, is required.

Entry Clc1ccccc1-c1cc(N2CCOCC2)nc2c(-c3ccn[nH]3)nccc12 — recorded IC50 = 25.3

Entry CC(C)C(C)(O)c1cc(N2CCOC[C@H]2C)nc2c(-c3ccn[nH]3)nccc12 (stereo partly drawn) — recorded IC50 = 13.6

Entry O=S1(=Nc2cc(N3CCOCC3)nc3c(-c4ccn[nH]4)nccc23)CCOCC1 — recorded IC50 = 293

Entry COc1cccc(-c2cc(N3CCOCC3)nc3c(-c4ccn[nH]4)nccc23)c1 — recorded IC50 = 82.3

Entry O=C1CCCN1c1cc(N2CCOCC2)nc2c(-c3ccn[nH]3)nccc12 — recorded IC50 = 317

Entry CS(=O)(=O)c1ccc(-c2cc(N3CCOCC3)nc3c(-c4ccn[nH]4)nccc23)cn1 — recorded IC50 = 56.9

Entry CCS(=O)(=O)c1cc(N2CCOCC2)nc2c(-c3ccn[nH]3)nccc12 — recorded IC50 = 86.9

Entry NC(=O)C1CCCN(c2cc(N3CCOCC3)nc3c(-c4ccn[nH]4)nccc23)C1 (stereo not drawn) — recorded IC50 = 251

Entry C[C@@H]1COCCN1c1cc(C(C)(O)C2CCOCC2)c2ccnc(-c3ccn[nH]3)c2n1 (stereo partly drawn) — recorded IC50 = 12.7

Entry Cc1ccccc1-c1cc(N2CCOCC2)nc2c(-c3ccn[nH]3)nccc12 — recorded IC50 = 30.6

Entry C[C@@H]1COCCN1c1cc(-c2cnn(C(C)(C)C)c2)c2ccnc(-c3ccn[nH]3)c2n1 — recorded IC50 = 58.8

Entry CCn1nc(C(F)(F)F)cc1-c1cc(N2CCOC[C@H]2C)nc2c(-c3ccn[nH]3)nccc12 — recorded IC50 = 11.7

Entry COc1ccccc1-c1cc(N2CCOCC2)nc2c(-c3ccn[nH]3)nccc12 — recorded IC50 = 181

Entry CCCn1nccc1-c1cc(N2CCOC[C@H]2C)nc2c(-c3ccn[nH]3)nccc12 — recorded IC50 = 8.16

Entry NC(=O)c1cccc(-c2cc(N3CCOCC3)nc3c(-c4ccn[nH]4)nccc23)c1 — recorded IC50 = 113

Entry C[C@@H]1COCCN1c1cc(-c2cnn(C)c2)c2ccnc(-c3ccn[nH]3)c2n1 — recorded IC50 = 24.1

Entry c1cc(-c2nccc3c(-c4ccc(N5CCOCC5)nc4)cc(N4CCOCC4)nc23)[nH]n1 — recorded IC50 = 115

Entry C[C@@H]1COCCN1c1cc(-c2cncn2C)c2ccnc(-c3ccn[nH]3)c2n1 — recorded IC50 = 5.17

Entry C[C@@H]1COCCN1c1cc(N=S(C)(=O)c2ccccc2F)c2ccnc(-c3ccn[nH]3)c2n1 (stereo partly drawn) [Example 139] — recorded IC50 = 41.7

Entry Cc1cscc1-c1cc(N2CCOCC2)nc2c(-c3ccn[nH]3)nccc12 — recorded IC50 = 35

Entry COc1ccncc1-c1cc(N2CCOCC2)nc2c(-c3ccn[nH]3)nccc12 — recorded IC50 = 894

Entry c1cc(-c2nccc3c(-c4cc[nH]n4)cc(N4CCOCC4)nc23)[nH]n1 — recorded IC50 = 218

Entry Cc1cc(-c2cc(N3CCOCC3)nc3c(-c4ccn[nH]4)nccc23)ccn1 — recorded IC50 = 251

Entry c1cc(-c2nccc3c(-c4ccnc5[nH]ccc45)cc(N4CCOCC4)nc23)[nH]n1 — recorded IC50 = 87.5

Entry C[C@@H]1COCCN1c1cc(C2CCS(=O)(=O)CC2)c2ccnc(-c3ccn[nH]3)c2n1 — recorded IC50 = 6.76

Entry Cc1nc(F)ccc1-c1cc(N2CCOC[C@H]2C)nc2c(-c3ccn[nH]3)nccc12 — recorded IC50 = 13.9

Entry O=C(c1cccc(-c2cc(N3CCOCC3)nc3c(-c4ccn[nH]4)nccc23)c1)N1CCCCC1 — recorded IC50 = 296

Entry Cc1cccnc1-c1cc(N2CCOC[C@H]2C)nc2c(-c3ccn[nH]3)nccc12 — recorded IC50 = 224

Entry c1cc(-c2nccc3c(N4CCCCC4)cc(N4CCOCC4)nc23)[nH]n1 — recorded IC50 = 65.1

Entry C[C@@H]1COCCN1c1cc(N=S(C)(=O)c2ccccc2O)c2ccnc(-c3ccn[nH]3)c2n1 (stereo partly drawn) — recorded IC50 = 237

Entry COc1ccc(-c2cc(N3CCOCC3)nc3c(-c4ccn[nH]4)nccc23)c(OC)c1 — recorded IC50 = 68.1

Entry FC(F)(F)c1ccc(-c2cc(N3CCOCC3)nc3c(-c4ccn[nH]4)nccc23)cc1 — recorded IC50 = 188

Entry CC(C)COP(C)(=O)c1cc(N2CCOC[C@H]2C)nc2c(-c3ccn[nH]3)nccc12 (stereo partly drawn) — recorded IC50 = 25.5
